Measured values drawn from ChEMBL document CHEMBL5649170 for this set.

- TESTED SYSTEM: AMP-activated protein kinase (AMPK) alpha-1/beta-1/gamma-1 (Homo sapiens, UniProt P54619+Q13131+Q9Y478)
- Sequence (P54619 whole entry): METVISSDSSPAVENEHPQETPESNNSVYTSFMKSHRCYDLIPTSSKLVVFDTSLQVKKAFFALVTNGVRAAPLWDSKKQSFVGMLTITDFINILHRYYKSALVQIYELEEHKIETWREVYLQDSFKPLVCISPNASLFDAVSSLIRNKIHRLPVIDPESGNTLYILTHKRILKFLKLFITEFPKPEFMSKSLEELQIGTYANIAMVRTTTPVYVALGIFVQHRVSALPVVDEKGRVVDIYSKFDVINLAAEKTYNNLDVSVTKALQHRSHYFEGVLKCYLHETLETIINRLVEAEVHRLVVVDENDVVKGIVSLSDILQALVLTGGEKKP
- Sequence (Q9Y478 whole entry): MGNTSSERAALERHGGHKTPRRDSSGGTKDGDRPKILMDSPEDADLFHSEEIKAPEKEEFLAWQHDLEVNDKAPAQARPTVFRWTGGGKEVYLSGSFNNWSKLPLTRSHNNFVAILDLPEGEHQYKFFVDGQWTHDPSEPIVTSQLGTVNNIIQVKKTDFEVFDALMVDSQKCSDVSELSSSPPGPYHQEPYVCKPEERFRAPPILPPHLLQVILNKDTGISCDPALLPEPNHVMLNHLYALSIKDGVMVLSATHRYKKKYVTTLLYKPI
- Sequence (Q13131 whole entry): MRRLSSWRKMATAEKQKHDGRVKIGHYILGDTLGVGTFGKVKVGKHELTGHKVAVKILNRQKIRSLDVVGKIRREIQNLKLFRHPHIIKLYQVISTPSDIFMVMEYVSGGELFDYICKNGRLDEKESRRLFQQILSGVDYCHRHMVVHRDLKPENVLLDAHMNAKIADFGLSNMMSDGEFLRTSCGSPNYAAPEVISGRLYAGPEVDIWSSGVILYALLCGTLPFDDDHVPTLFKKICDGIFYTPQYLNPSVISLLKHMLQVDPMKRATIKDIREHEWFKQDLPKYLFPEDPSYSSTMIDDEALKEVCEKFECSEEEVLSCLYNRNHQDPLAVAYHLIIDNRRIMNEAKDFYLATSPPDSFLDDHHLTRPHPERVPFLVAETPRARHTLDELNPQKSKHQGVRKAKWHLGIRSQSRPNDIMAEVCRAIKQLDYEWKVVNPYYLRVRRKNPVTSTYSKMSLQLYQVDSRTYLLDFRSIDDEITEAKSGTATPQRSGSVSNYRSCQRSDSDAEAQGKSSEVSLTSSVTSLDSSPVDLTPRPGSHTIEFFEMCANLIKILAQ
- PROCEDURE TEXT: Inhibition of AMPK_A1/B1/G1 (unknown origin)
READOUT KIND: IC50

Query string: Quick check: IC50 of COc1ncc(F)cc1CNc1ccc(Cc2c[nH]c3ncc(C)cc23)c(F)n1 ?
Result string: > 1000 nM

---

- TESTED SYSTEM: Megakaryocyte-associated tyrosine-protein kinase (Homo sapiens, UniProt P42679)
- Sequence (P42679 whole entry): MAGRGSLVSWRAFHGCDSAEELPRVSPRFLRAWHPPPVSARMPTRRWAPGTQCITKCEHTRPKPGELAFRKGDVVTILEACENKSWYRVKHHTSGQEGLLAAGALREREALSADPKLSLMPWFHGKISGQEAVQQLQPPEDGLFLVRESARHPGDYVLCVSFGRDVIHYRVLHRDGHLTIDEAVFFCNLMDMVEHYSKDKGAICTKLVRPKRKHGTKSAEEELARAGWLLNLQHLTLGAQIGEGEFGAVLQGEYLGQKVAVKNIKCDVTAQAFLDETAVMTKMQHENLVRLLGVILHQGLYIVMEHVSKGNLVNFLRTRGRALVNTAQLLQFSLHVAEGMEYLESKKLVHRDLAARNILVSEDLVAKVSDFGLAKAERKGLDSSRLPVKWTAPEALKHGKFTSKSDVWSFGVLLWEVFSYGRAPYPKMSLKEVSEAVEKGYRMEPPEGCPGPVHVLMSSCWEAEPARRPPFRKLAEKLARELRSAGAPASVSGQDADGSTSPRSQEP
pIC50: −log10 of the molar value.
READOUT KIND: pIC50

Query string: Enter reported pIC50 observed with Megakaryocyte-associated tyrosine-protein kinase (Homo sapiens, UniProt P42679) for COc1ncc(F)cc1CNc1ccc(Cc2c[nH]c3ncc(C)cc23)c(F)n1 [PLX-5622]
Result string: < 6.00
